For each of the compounds below, state its GI50.
# system_tested: CCDC6-RET-BaF3 (Homo sapiens, UniProt P07949)
# Construct: fused on or other part: Q16204 (Coiled-coil domain-containing protein 6)
# Sequence (P07949 whole entry, change not shown, the tested form may be a part): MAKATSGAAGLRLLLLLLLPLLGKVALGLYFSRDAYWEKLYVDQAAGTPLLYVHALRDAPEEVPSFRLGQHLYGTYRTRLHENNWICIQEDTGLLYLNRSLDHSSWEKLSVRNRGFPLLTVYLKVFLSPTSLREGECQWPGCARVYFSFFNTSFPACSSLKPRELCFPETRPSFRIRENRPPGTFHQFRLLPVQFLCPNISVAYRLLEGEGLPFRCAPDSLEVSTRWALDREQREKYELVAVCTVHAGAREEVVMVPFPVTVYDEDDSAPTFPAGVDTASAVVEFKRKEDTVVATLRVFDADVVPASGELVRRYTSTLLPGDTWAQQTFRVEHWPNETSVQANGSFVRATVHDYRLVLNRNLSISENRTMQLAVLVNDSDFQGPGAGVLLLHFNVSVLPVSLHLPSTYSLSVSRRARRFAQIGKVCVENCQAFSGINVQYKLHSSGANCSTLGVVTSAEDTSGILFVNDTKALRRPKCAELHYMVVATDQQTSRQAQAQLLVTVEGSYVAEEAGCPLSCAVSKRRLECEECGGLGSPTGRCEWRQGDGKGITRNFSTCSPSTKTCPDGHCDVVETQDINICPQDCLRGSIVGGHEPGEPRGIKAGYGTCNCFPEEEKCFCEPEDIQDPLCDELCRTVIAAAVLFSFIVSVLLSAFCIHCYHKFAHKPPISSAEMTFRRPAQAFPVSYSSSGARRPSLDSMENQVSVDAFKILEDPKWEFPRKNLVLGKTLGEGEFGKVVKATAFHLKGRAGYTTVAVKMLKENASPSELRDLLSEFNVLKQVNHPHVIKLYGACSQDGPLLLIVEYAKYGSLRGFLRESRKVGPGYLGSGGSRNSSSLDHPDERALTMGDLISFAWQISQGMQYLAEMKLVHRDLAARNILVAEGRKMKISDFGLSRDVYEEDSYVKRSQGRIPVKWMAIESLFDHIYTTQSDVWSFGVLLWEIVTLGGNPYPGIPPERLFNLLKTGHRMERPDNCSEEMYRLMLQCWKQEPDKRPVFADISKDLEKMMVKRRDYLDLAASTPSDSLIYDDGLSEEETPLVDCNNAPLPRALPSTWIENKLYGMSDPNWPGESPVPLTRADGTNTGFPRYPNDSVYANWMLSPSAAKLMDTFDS
# assay_explanation: Growth inhibition of CCDC6-RET-BaF3 cells stably transfected with kinase (MTS)
# Type: cell-based
# run_parameters: 48 h, read-out: CCDC6-RET (IC50/nM)
Lab note: write values as number then unit, every time.

Param item = Cc1ccc(C(=O)Nc2ccc(CN3CCN(C)CC3)c(C(F)(F)F)c2)cc1Oc1nc(-c2ccoc2)nc2c1cnn2C ; retrieve measured GI50.
75.1 nM

Param item = Cc1ccc(NC(=O)c2ccc(CN3CCN(C)CC3)c(C(F)(F)F)c2)cc1Oc1nc(-c2cccnc2)nc2cc[nH]c12 ; retrieve measured GI50.
4110 nM

Param item = CN1CCN(Cc2cc(NC(=O)c3cccc(Oc4nc(-c5cccnc5)nc5ccn(C)c45)c3)cc(C(F)(F)F)c2)CC1 ; retrieve measured GI50.
4530 nM

Param item = Cc1ccc(Oc2nc(-c3ccccc3)nc3c2ncn3C)cc1C(=O)Nc1ccc(CN2CCN(C)CC2)c(C(F)(F)F)c1 ; retrieve measured GI50.
2700 nM

Param item = CN1CCN(Cc2ccc(NC(=O)c3cc(Oc4cc(-c5cccnc5)nc5sccc45)ccc3Cl)cc2C(F)(F)F)CC1 ; retrieve measured GI50.
1570 nM

Param item = Cc1ccc(C(=O)Nc2ccc(CN3CCN(C)CC3)c(C(F)(F)F)c2)cc1Oc1nc(-c2ccccc2)nc2cc[nH]c12 ; retrieve measured GI50.
2710 nM

---

# system_tested: CCDC6-RET-BaF3 (Homo sapiens)
# Construct: fused on or other part: Q16204 (Coiled-coil domain-containing protein 6)
# assay_explanation: Growth inhibition of CCDC6-RET-BaF3 cells stably transfected with kinase (MTS)
# Assay type: cell-based
# run_parameters: 48 h, read-out: CCDC6-RET (IC50/nM)
# strict inequality: GI50 < 4000 nM yields rule met, everything else yields rule not met

GI50 strictly < 4000 nM for this molecule? Cc1ccc(Oc2nc(-c3ccccc3)nc3c2ncn3C)cc1NC(=O)c1ccc(CN2CCN(C)CC2)c(C(F)(F)F)c1 [I-j-2]
rule met

GI50 strictly < 4000 nM for this molecule? Cc1ccc(Oc2nc(-c3ccncc3)nc3c2cnn3C)cc1C(=O)Nc1ccc(CN2CCN(C)CC2)c(C(F)(F)F)c1 [II-n-2]
rule met

GI50 strictly < 4000 nM for this molecule? Cc1ccc(Oc2nc(-c3cccc(O)c3)nc3nn(C)cc23)cc1C(=O)Nc1ccc(CN2CCN(C)CC2)c(C(F)(F)F)c1 [IV-n-6]
rule not met

GI50 strictly < 4000 nM for this molecule? Cc1ccc(C(=O)Nc2cc(CN3CCN(C)CC3)cc(C(F)(F)F)c2)cc1Oc1nc(-c2cccnc2)nc2ccn(C)c12 [III-q-3]
rule met

GI50 strictly < 4000 nM for this molecule? Cc1ccc(C(=O)Nc2ccc(CN3CCN(C)CC3)c(C(F)(F)F)c2)cc1Oc1nc(-c2ccc(O)cc2)nc2ccn(C)c12 [III-m-16]
rule met

GI50 strictly < 4000 nM for this molecule? CN1CCN(Cc2ccc(NC(=O)c3cc(Oc4nc(-c5ccc(N)cc5)nc5nn(C)cc45)ccc3Cl)cc2C(F)(F)F)CC1 [IV-o-9]
rule not met

---

# system_tested: KIF5B-RET-BaF3 (Homo sapiens)
# Construct: fused on or other part: P33176 (Kinesin-1 heavy chain)
# Sequence (P07949 whole entry, change not shown, the tested form may be a part): as above
# assay_explanation: Growth inhibition of KIF5B-RET-BaF3 cells stably transfected with kinase (MTS)
# Format: cell-based
# run_parameters: 48 h, read-out: KIF5B-RET (IC50/nM)
For each of the compounds below, state its log10 of GI50.
Parameter value (number): base-10 log of GI50 in nM.

Form field: log10 of GI50 recorded for Cc1ccc(C(=O)Nc2cc(CN3CCN(C)CC3)cc(C(F)(F)F)c2)cc1Oc1nc(-c2ccncc2)nc2cc[nH]c12 with KIF5B-RET-BaF3 (Homo sapiens) (enter value)
2.77

Form field: log10 of GI50 recorded for CN1CCN(Cc2ccc(NC(=O)c3cccc(Oc4cc(-c5ccncc5)nc5c4ccn5C)c3)cc2C(F)(F)F)CC1 with KIF5B-RET-BaF3 (Homo sapiens) (enter value)
2.16

Form field: log10 of GI50 recorded for Cc1ccc(C(=O)Nc2ccc(CN3CCN(C)CC3)c(C(F)(F)F)c2)cc1Oc1nc(-c2cccnc2)nc2ccn(C)c12 with KIF5B-RET-BaF3 (Homo sapiens) (enter value)
3.48

Form field: log10 of GI50 recorded for Cc1ccc(Oc2nc(-c3ccsc3)nc3c2ncn3C)cc1C(=O)Nc1ccc(CN2CCN(C)CC2)c(C(F)(F)F)c1 with KIF5B-RET-BaF3 (Homo sapiens) (enter value)
3.27

Form field: log10 of GI50 recorded for Cc1ccc(C(=O)Nc2ccc(CN3CCN(C)CC3)c(C(F)(F)F)c2)cc1Oc1nc(NC2CC2)nc2c1cnn2C with KIF5B-RET-BaF3 (Homo sapiens) (enter value)
1.33

Form field: log10 of GI50 recorded for Cc1ccc(Oc2nc(-c3ccncc3)nc3cc[nH]c23)cc1NC(=O)c1ccc(CN2CCN(C)CC2)c(C(F)(F)F)c1 with KIF5B-RET-BaF3 (Homo sapiens) (enter value)
0.37

Form field: log10 of GI50 recorded for Cc1ccc(Oc2nc(-c3ccc(Cl)cc3)nc3c2ncn3C)cc1NC(=O)c1ccc(CN2CCN(C)CC2)c(C(F)(F)F)c1 with KIF5B-RET-BaF3 (Homo sapiens) (enter value)
3.16

Form field: log10 of GI50 recorded for Cc1ccc(NC(=O)c2ccc(CN3CCN(C)CC3)c(C(F)(F)F)c2)cc1Oc1nc(-c2cccnc2)nc2cc[nH]c12 with KIF5B-RET-BaF3 (Homo sapiens) (enter value)
3.45

---

# system_tested: CCDC6-RET-BaF3 (Homo sapiens, UniProt P07949)
# Construct: fused on or other part: Q16204 (Coiled-coil domain-containing protein 6)
# assay_explanation: Growth inhibition of CCDC6-RET-BaF3 cells stably transfected with kinase (MTS)
# Assay type: cell-based
# run_parameters: 48 h, read-out: CCDC6-RET (IC50/nM)
# strict inequality: GI50 < 600 nM yields Yes, everything else yields No

GI50 strictly < 600 nM for this molecule? CC(=O)NCC1CCN(c2ccc(NC(=O)c3ccc(C)c(Oc4nc(-c5cccnc5)nc5ccn(C)c45)c3)cc2C(F)(F)F)CC1
Yes

GI50 strictly < 600 nM for this molecule? CN1CCN(Cc2ccc(NC(=O)c3cc(Oc4nc(-c5cccc(O)c5)nc5nn(C)cc45)ccc3Cl)cc2C(F)(F)F)CC1
No

GI50 strictly < 600 nM for this molecule? CN1CCN(Cc2ccc(NC(=O)c3cccc(Oc4nc(-c5ccncc5)nc5[nH]cnc45)c3)cc2C(F)(F)F)CC1
Yes

GI50 strictly < 600 nM for this molecule? Cc1ccc(Oc2cc(-c3cn[nH]c3)nc3[nH]ccc23)cc1C(=O)Nc1ccc(CN2CCN(C)CC2)c(C(F)(F)F)c1
Yes

GI50 strictly < 600 nM for this molecule? CN1CCN(Cc2ccc(NC(=O)c3cc(Oc4nc(-c5cccc(Cl)c5)nc5nn(C)cc45)ccc3Cl)cc2C(F)(F)F)CC1
No

GI50 strictly < 600 nM for this molecule? Cc1ccc(Oc2nc(-c3cccnc3)nc3ccsc23)cc1NC(=O)c1ccc(CN2CCN(C)CC2)c(C(F)(F)F)c1
No

GI50 strictly < 600 nM for this molecule? CCC(=O)NCC1CCN(c2ccc(NC(=O)c3ccc(C)c(Oc4nc(-c5cccnc5)nc5c4cnn5C)c3)cc2C(F)(F)F)CC1
No

GI50 strictly < 600 nM for this molecule? CCC(=O)NC1CCN(c2ccc(NC(=O)c3ccc(C)c(Oc4nc(-c5cccnc5)nc5c4cnn5C)c3)cc2C(F)(F)F)CC1
Yes

GI50 strictly < 600 nM for this molecule? Cc1ccc(C(=O)Nc2ccc(CN3CCN(C)CC3)c(C(F)(F)F)c2)cc1Oc1nc(-c2cccnc2)nc2[nH]ncc12
Yes

GI50 strictly < 600 nM for this molecule? Cc1ccc(Oc2nc(-c3ccncc3)nc3[nH]ncc23)cc1NC(=O)c1ccc(CN2CCN(C)CC2)c(C(F)(F)F)c1
Yes

GI50 strictly < 600 nM for this molecule? CN1CCN(Cc2ccc(C(=O)Nc3cc(Oc4nc(-c5ccccc5)nc5cc[nH]c45)ccc3Cl)cc2C(F)(F)F)CC1
No

GI50 strictly < 600 nM for this molecule? Cc1ccc(C(=O)Nc2ccc(CN3CCN(C)CC3)c(C(F)(F)F)c2)cc1Oc1nc(-c2ccoc2)nc2cc[nH]c12
No

GI50 strictly < 600 nM for this molecule? CN1CCN(Cc2ccc(NC(=O)c3cc(Oc4nc(-c5ccc(O)cc5)nc5nn(C)cc45)ccc3Cl)cc2C(F)(F)F)CC1
No

GI50 strictly < 600 nM for this molecule? Cc1ccc(C(=O)Nc2ccc(CN3CCN(C)CC3)c(C(F)(F)F)c2)cc1Oc1nc(-c2ccsc2)nc2cc[nH]c12
No

Values compiled from patent US11319322B2.
